Hello, the source for this data is PubChem BioAssay AID720607, in case you need it.

# test.name: CCRF-CEM leukemia cell viability loss, dose response, HRAS target identification, CellTiter-Glo ATP luminescence, 8/24/48 h, dry powder (AID 720607)
# experimental.parameters: 8-48 h, 24 h series, top conc, at 35 µM, stronger effect = lower value
Results filed as inconclusive are left out.
reported.metric: activity change (%)
Please give a number only; it is taken to be in %.

molecule | units.symbol | activity change
Cc1onc(C(=O)N2CCN(C(c3ccncc3)c3ccncc3)CC2)c1[N+](=O)[O-] | % | -2.69
C#CCCCC(=O)NCCOCCOCCOc1ccc(N(C(=O)CCl)C(C(=O)NCCc2ccccc2)c2cccs2)cc1Cl (stereo not given) | % | -97.5
COC(=O)c1ccc([C@@H]2c3[nH]c4ccccc4c3C[C@@H](C(=O)OC)N2C(=O)CCl)cc1 | % | -98.1
COc1ccc(N(C(=O)CCl)C(C(=O)NCCc2ccccc2)c2cccs2)cc1Cl (stereo not given) | % | -98

Q. Field request: activity change | item: CC(C)(C)OC(=O)NCCOCCOCCOc1ccc(N(C(=O)CCl)C(C(=O)NCCc2ccccc2)c2cccs2)cc1Cl (stereo not given)
A. -98.2
